The reported numbers originate from patent US20130295102A1.

Target: T1, Human Factor P (human, UniProt P27918 29-469)
T1 construct: Bought protein (Complement Technology cat# A139) in SET and Biacore; Factor P of human serum in the functional assays; also called FP; human FP
T1 sequence (P27918 29-469 limits assumed): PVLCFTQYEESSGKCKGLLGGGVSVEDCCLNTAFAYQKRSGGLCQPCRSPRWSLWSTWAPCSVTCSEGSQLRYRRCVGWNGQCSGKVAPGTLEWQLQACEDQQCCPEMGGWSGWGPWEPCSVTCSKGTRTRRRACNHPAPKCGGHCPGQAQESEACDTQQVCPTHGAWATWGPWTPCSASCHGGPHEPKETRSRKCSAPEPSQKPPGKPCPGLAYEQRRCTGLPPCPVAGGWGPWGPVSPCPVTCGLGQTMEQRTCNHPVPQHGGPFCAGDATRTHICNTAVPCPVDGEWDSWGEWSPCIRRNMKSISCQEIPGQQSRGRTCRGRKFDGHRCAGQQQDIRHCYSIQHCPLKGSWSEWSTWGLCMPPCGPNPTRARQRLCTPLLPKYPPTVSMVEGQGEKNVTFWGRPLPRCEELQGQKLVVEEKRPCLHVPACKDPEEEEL
Experiment: Biacore SPR, captured Factor P
experimental.endpoint: Kd (nM)
Report as a plain number; the unit nM is understood.

NVS965-T (Fab, V domains shown, NVS965 with heavy chain N30 replaced with threonine) VH: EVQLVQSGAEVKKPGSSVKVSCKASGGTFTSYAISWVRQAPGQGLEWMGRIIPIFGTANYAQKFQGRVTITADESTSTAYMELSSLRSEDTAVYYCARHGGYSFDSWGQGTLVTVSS VL: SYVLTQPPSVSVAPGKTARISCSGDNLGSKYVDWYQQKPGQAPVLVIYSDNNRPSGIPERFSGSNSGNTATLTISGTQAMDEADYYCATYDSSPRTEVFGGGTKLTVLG :: 0.0514

From here, focus on the item given below.
Prompt line: Item under review: NVS964 (Fab, V domains shown, Disulfide-bridged Fab; also called Fab NVS964) VH: EVQLVQSGAEVKKPGASVKVSCKASGYTFTSHYMHWVRQAPGQGLEWMGKINADLGDTNYAQKFQGRVTMTRDTSISTAYMELSSLRSEDTAVYYCARDGIEHGGHYYWGYLFDIWGQGTLVTVSS VL: SYELTQPPSVSVAPGQTARISCSGDSIREYYVHWYQQKPGQAPVLVIGDDTNRPSGIPERFSGSNSGNTATLTISGTQAEDEADYYCAAWDFSPAIVFGGGTKLTVLG . Reported Kd?
Response line: 0.035
